molecular target: human IL-6 (as added in the B9 and 7TD1 bioassays) (human, UniProt P05231 30-212); experiment: cell-based or functional assay
QUANTITY KIND: IC50, 7TD1 cells (pM)
# number only, unit pM dropped from output

IC50, 7TD1 cells for 132E7 (germlined variant of 68F2) (antibody, V domains shown) VH: EVQLQESGPGLVKPSQTLSLTCTVSGGSITSRYYAWSWIRQPPGKGLEWIGVIDYDGDTYYSPSLKSRVTISWDTSKNQFSLKLSSVTPADTAVYYCARDPDVVTGFHYDYWGQGTTVTVSS VL: QSVLTQPPRVSGAPGQTVTISCAGANNDIGTYAYVSWYQQLPGTAPKLLIYKVTTRASGVPDRFSGSKSGNSASLTITGLQAEDEADYYCASYRNFNNAVFGGGTKLTVL ?
0.37
